Numbers sourced from patent US20240150440A1.

Target: recombinant SARS-CoV-2 RBD with C-terminal AviTag (SARS-CoV-2, UniProt P0DTC2 319-541)
Experiment: ELISA, competition with coated ACE2-Fc for RBD [Cont. 8]
For each entry below, report its IC50 value.
Numbers only, in nM.

Would you please look over these solved cases?
>  <BINDER>
PP927 MBP-5HVZ-R1i-C8-H6 (VHH, Form: Dimer) VHH: QVQLVESGGGLVQPGGSLRLSCAASGRQFGAWRMHWYRQAPGKQREWVAGITSGTSGNYADSVKGRFTISRDNAKNTVYLQMNSLKPEDTAVYYCAATSHTTYHAEYWGQGTQVTVSS

>  <UNIT_SPEC>
nM

>  <IC50>
111

$$$$
>  <BINDER>
PP1096 MBP-5HVZ-PAPA-RN-3-H6 (VHH) VHH: QVQLVESGGGLVQPGGSLRLSCAASGFEFTYRAVHWFRQAPGKGREWVAGVVSGGSTYYADSVKGRFTISRDNAKNTVYLQMNSLKPEDTAVYYCNAGPQAEEDTYDYWGQGTQVTVSS

>  <UNIT_SPEC>
nM

>  <IC50>
46.8

$$$$
>  <BINDER>
PP1100 MBP-5HVZ-PAPA-RN-14-H6 (VHH, Form: Dimer) VHH: QVQLVESGGGLVQPGGSLRLSCAASGENFSGNLVHWFRQAPGKAREGVATVTSTGSGYYADSVKGRFTISRDNAKNTVYLQMNSLKPEDTAVYYCAAKHQKGEIPYYDWGQGTQVTVSS

>  <UNIT_SPEC>
nM

>  <IC50>
3.2

$$$$
>  <BINDER>
PP934 MBP-5HVZ-S3a-H2-H6 (VHH, Form: Dimer) VHH: QVQLVESGGGLVQPGGSLRLSCAASGAAFSKNALHWFRQAPGKGREWVASITSGSGTQYMDSVKGRFTISRDNAKNTVYLQMNSLKPEDTAVYYCAALAYSGGYDYWGQGTQVTVSS

>  <UNIT_SPEC>
nM

>  <IC50>
2.2

$$$$
>  <BINDER>
PP1095 MBP-5HVZ-PAPA-RN-2-H6 (VHH) VHH: QVQLVESGGGLVQPGGSLRLSCAASGSYFSKNAVHWYRQAPGKGREWVAALTNSGSGNYKDSVKGRFTISRDNAKNTVYLQMNSLKPEDTAVYYCTANISESTGQGYDYWGQGTQVTVSS

>  <UNIT_SPEC>
nM

>  <IC50>
3.2

$$$$

Now for the binder whose IC50 we want.
// query Which IC50 is reported for this binder? PP1098 MBP-5HVZ-PAPA-RN-9-H6 (VHH) VHH: QVQLVESGGGLVQPGGSLRLSCAASGLRFAMTEMAWFRQAPGKQREFVALITEGGSGSYGDSVKGRFTISRDNAKNTVYLQMNSLKPEDTAVYYCAALHYTEGANTESATTFDYWGQGTQVTVSS
// result 2.3
